- Test system: T47D (PI3Kα-H1047R) cell line
- measurement-description: HTRF phospho-AKT(S473) cell assay in T47D cells
- Format: cell-based, human
- condition-details: Homo sapiens; HTRF phospho-AKT(S473), T47D (PI3Kα-H1047R) cells, 2 hours compound incubation
pIC50: −log10 of the molar value.

test-smiles	pIC50
Cc1cc([C@@H](C)Nc2ccc(Cl)nc2C(=O)NS(C)(=O)=O)c2nc(N3Cc4cn(-c5ncc(C#N)cc5C)nc4C3)n(C)c(=O)c2c1	6.30 to 6.60
CCn1c(N2CCC(c3nc(C)n(C)n3)CC2)nc2c([C@@H](C)Nc3ccc(Cl)nc3C(=O)NS(C)(=O)=O)cc(C)cc2c1=O	> 6.60
Cc1cc([C@@H](C)Nc2ccc(Cl)nc2C(=O)NS(C)(=O)=O)c2nc(N3C[C@H]4C[C@@H]3CN4c3ccc(N)cn3)n(C)c(=O)c2c1	5.30 to 6.00
Cc1cc([C@@H](C)Nc2ccc(Cl)nc2C(=O)NS(C)(=O)=O)c2nc(N3CCC(c4ncc(C)c(C)n4)CC3)n(C)c(=O)c2c1	> 6.60

* * *

Entries and their IC50
- System: SKBR3 (PI3Kα-Wild Type) cell line
- measurement-description: HTRF phospho-AKT(S473) cell assay in SKBR3 cells
- Type: cell-based, human
- condition-details: Homo sapiens, SK-BR-3; SKBR3 (PI3Kα-Wild Type) cells, HTRF phospho-AKT(S473), 2 hours compound incubation, PDGF-BB stimulated

test-smiles	IC50
Cc1cc([C@@H](C)Nc2ccc(Cl)nc2C(=O)NS(C)(=O)=O)c2nc(N3Cc4cnn(C(F)F)c4C3)n(C)c(=O)c2c1	1 to 5 µM
COc1nc(Cl)ccc1N[C@H](C)c1cc(C)cc2c(=O)n(C)c(N3Cc4ccc(F)cc4C3)nc12	≥ 5 µM
Cc1cc([C@@H](C)Nc2ccc(Cl)nc2C(=O)NS(C)(=O)=O)c2nc(N3CCN(c4ccc(C#N)cn4)CC3)n(C)c(=O)c2c1	1 to 5 µM
Cc1cc([C@@H](C)Nc2ccc(Cl)nc2C(=O)NS(C)(=O)=O)c2nc(N3CCN(c4ccc(C#N)cn4)[C@H](C)C3)n(C)c(=O)c2c1	1 to 5 µM

* * *

- system-name: PI3Kα H1047R (Homo sapiens, UniProt P42336, H1047R)
- Sequence (P42336 whole entry H1047R): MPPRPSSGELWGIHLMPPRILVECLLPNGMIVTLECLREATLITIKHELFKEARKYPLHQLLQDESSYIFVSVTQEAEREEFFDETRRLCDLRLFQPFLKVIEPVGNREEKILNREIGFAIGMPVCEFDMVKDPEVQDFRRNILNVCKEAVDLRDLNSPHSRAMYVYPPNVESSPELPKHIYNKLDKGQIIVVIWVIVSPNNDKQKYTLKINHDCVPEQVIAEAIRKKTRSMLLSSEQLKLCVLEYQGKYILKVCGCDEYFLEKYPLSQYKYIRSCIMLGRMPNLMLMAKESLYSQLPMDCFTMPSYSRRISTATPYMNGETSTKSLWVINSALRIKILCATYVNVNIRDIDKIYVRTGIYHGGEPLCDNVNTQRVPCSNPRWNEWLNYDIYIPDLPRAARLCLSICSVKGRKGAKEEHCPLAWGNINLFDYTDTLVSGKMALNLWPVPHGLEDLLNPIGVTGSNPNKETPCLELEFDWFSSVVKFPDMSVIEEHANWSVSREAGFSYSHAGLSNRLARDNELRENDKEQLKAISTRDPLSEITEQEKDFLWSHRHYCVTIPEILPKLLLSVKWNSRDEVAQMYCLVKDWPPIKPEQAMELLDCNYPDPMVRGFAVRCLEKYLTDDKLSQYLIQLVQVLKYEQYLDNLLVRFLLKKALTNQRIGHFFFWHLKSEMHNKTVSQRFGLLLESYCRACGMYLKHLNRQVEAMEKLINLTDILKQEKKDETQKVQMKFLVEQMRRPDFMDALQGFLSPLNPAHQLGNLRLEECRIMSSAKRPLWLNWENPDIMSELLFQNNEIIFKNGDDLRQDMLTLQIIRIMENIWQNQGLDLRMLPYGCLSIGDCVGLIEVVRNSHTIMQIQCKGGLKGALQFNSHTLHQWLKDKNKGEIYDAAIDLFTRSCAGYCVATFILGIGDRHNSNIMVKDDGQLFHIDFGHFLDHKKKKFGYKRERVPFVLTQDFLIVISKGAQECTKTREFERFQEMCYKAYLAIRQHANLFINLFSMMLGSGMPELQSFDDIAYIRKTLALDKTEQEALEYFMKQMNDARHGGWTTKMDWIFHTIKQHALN
- Sequence (P27986 2-724 partner): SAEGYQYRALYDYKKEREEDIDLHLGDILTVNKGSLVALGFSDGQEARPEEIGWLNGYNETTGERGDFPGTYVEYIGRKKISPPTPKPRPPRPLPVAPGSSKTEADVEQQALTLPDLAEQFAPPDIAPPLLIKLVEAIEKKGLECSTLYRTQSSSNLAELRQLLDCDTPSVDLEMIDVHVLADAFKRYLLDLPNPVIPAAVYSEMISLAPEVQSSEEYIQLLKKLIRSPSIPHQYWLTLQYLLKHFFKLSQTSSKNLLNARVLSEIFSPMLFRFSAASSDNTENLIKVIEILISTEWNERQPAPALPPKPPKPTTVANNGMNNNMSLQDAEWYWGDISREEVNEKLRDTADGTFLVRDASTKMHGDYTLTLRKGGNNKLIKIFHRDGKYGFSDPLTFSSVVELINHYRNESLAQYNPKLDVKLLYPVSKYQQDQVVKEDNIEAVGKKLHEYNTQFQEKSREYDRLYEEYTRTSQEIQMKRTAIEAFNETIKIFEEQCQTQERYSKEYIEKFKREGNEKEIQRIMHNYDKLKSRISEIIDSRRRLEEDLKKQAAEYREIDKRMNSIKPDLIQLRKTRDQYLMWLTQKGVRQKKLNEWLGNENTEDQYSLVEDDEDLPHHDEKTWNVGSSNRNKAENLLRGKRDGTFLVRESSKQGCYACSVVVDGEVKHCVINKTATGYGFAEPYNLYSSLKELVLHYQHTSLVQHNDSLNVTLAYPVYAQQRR
- measurement-description: PI3Kα H1047R enzyme assay (Transcreener ADP2 TR-FRET Red Assay)
- condition-details: purified recombinant full-length protein; 2 hours pre-incubation with compound
Entries and their IC50

compound	system-name	IC50
Cc1cc([C@@H](C)Nc2ccc(Cl)nc2C(=O)NS(C)(=O)=O)c2nc(N(C)C)n(C)c(=O)c2c1 [Compound 40]	PI3Kα H1047R (Homo sapiens, UniProt P42336, H1047R)	≥ 1 µM
COc1nc(Cl)ccc1N[C@H](C)c1cc(C)cc2c(=O)n(C)c(N3Cc4ccc(F)cc4C3)nc12 [Compound 96]	PI3Kα H1047R (Homo sapiens, UniProt P42336, H1047R)	≥ 1 µM
C[C@@H](Nc1ccc(Cl)nc1C(=O)NS(C)(=O)=O)c1cc(F)cc2c(=O)n(C)c(N3Cc4cccnc4C3)nc12 [Compound 32]	PI3Kα H1047R (Homo sapiens, UniProt P42336, H1047R)	0.25 to 0.5 µM
Cc1cc([C@@H](C)Nc2ccc(Cl)nc2C(=O)NS(C)(=O)=O)c2nc(-c3ccc(F)cn3)n(C)c(=O)c2c1 [Compound 88]	PI3Kα H1047R (Homo sapiens, UniProt P42336, H1047R)	≥ 1 µM
Cc1cc([C@@H](C)Nc2ccccc2S(=O)(=O)NC(=O)C(F)F)c2nc(N3Cc4ccc(F)cc4C3)n(C)c(=O)c2c1 [Compound 75]	PI3Kα H1047R (Homo sapiens, UniProt P42336, H1047R)	≥ 1 µM
C[C@@H](Nc1ccc(Cl)nc1C(=O)NS(C)(=O)=O)c1cc(F)cc2c(=O)n(C)c(-c3cccc(F)c3F)nc12 [Compound 87]	PI3Kα H1047R (Homo sapiens, UniProt P42336, H1047R)	≥ 1 µM
Cc1cc([C@@H](C)Nc2ccc[nH]c2=O)c2nc(N3Cc4ccc(F)cc4C3)n(C)c(=O)c2c1 [Compound 94]	PI3Kα H1047R (Homo sapiens, UniProt P42336, H1047R)	≥ 1 µM
CNC(=O)NS(=O)(=O)c1nc(Cl)ccc1N[C@H](C)c1cc(C)cc2c(=O)n(C)c(N3Cc4ccc(F)cc4C3)nc12 [Compound 70]	PI3Kα H1047R (Homo sapiens, UniProt P42336, H1047R)	0.25 to 0.5 µM
Cc1cc([C@@H](C)Nc2ccc(Cl)nc2C(=O)NS(C)(=O)=O)c2nc(N3CCC3)n(C)c(=O)c2c1 [Compound 15]	PI3Kα H1047R (Homo sapiens, UniProt P42336, H1047R)	0.25 to 0.5 µM

* * *

- Tested on: T47D (PI3Kα-H1047R) cell line
- measurement-description: HTRF phospho-AKT(S473) cell assay in T47D cells
- Type: cell-based, human
- condition-details: Homo sapiens; HTRF phospho-AKT(S473), T47D (PI3Kα-H1047R) cells, 2 hours compound incubation
Measured IC50 values are reported for all entries that follow.

compound	system-name	IC50
Cc1cc([C@@H](C)Nc2ccc(Cl)nc2C(=O)NS(C)(=O)=O)c2nc(N3C[C@@H]4[C@H](C3)[C@H]4c3ncn(C)n3)n(C)c(=O)c2c1	T47D (PI3Kα-H1047R) cell line	250 to 500 nM
Cc1cc([C@@H](C)Nc2ccc(Cl)nc2C(=O)NS(C)(=O)=O)c2nc(-c3ccc(-c4ccn(C)n4)c(F)c3)n(C)c(=O)c2c1	T47D (PI3Kα-H1047R) cell line	< 250 nM
Cc1cc([C@@H](C)Nc2ccc(Cl)nc2C(=O)NS(C)(=O)=O)c2nc(N3C[C@@H]4[C@H](C3)[C@H]4c3cn(CC(F)(F)F)nn3)n(C)c(=O)c2c1	T47D (PI3Kα-H1047R) cell line	< 250 nM
COc1cc(N2C[C@H]3C[C@@H]2CN3c2nc3c([C@@H](C)Nc4ccc(Cl)nc4C(=O)NS(C)(=O)=O)cc(C)cc3c(=O)n2C)ccn1	T47D (PI3Kα-H1047R) cell line	500 to 1000 nM
Cc1cc([C@@H](C)Nc2ccc(Cl)nc2C(=O)NS(C)(=O)=O)c2nc(N3C[C@H]4C[C@@H]3C[C@@H]4c3nn(C)cc3F)n(C)c(=O)c2c1 (relative stereo)	T47D (PI3Kα-H1047R) cell line	250 to 500 nM
Cc1cc([C@@H](C)Nc2ccc(Cl)nc2C(=O)NS(C)(=O)=O)c2nc(N3CCC(c4ncccn4)CC3)n(C)c(=O)c2c1	T47D (PI3Kα-H1047R) cell line	250 to 500 nM

* * *

- System: SKBR3 (PI3Kα-Wild Type) cell line
- measurement-description: HTRF phospho-AKT(S473) cell assay in SKBR3 cells
- Type: cell-based, human
- condition-details: Homo sapiens, SK-BR-3; HTRF phospho-AKT(S473), SKBR3 (PI3Kα-Wild Type) cells, 2 hours compound incubation, PDGF-BB stimulated
Measured IC50 values are reported for all entries that follow.

molecule	IC50
Cc1cnc(N2C[C@@H]3C[C@H]2CN3c2nc3c([C@@H](C)Nc4ccc(Cl)nc4C(=O)NS(C)(=O)=O)cc(C)cc3c(=O)n2C)nc1	≥ 5 µM
Cc1cc([C@@H](C)Nc2ccc(Cl)nc2C(=O)NS(C)(=O)=O)c2nc(N3CCC[C@H](c4cnc(C)cn4)C3)n(C)c(=O)c2c1 (relative stereo)	≥ 5 µM
Cc1cc([C@@H](C)Nc2ccc(Cl)nc2C(=O)NS(C)(=O)=O)c2nc(N3CCC(c4ccc(F)cn4)C3)n(C)c(=O)c2c1 (stereo partly shown)	1 to 5 µM
Cc1ccn(C2CCN(c3nc4c([C@@H](C)Nc5ccc(Cl)nc5C(=O)NS(C)(=O)=O)cc(C)cc4c(=O)n3C)CC2)c(=O)c1	1 to 5 µM

* * *

pIC50 values for the compounds below.
- System: SKBR3 (PI3Kα-Wild Type) cell line
- measurement-description: HTRF phospho-AKT(S473) cell assay in SKBR3 cells
- Type: cell-based, human
- condition-details: Homo sapiens, SK-BR-3; SKBR3 (PI3Kα-Wild Type) cells, HTRF phospho-AKT(S473), 2 hours compound incubation, PDGF-BB stimulated
pIC50: −log10 of the molar value.
value-kind: pIC50

compound	value-kind	test-result
Cc1cc([C@@H](C)Nc2ccc(Cl)nc2C(=O)NS(C)(=O)=O)c2nc(N3[C@@H]4CC[C@H]3C[C@H](c3cnc(C)nc3)C4)n(C)c(=O)c2c1 [Compound 300]	pIC50	≤ 5.30
Cc1cc([C@@H](C)Nc2ccc(Cl)nc2C(=O)NS(C)(=O)=O)c2nc(NCC3CC(F)(F)C3)n(C)c(=O)c2c1 [Compound 20]	pIC50	5.30 to 6.00
Cc1cc([C@@H](C)Nc2ccc(Cl)nc2C(=O)NS(C)(=O)=O)c2nc(N3CCC(c4ccnn4C(F)F)CC3)n(C)c(=O)c2c1 [Compound 414]	pIC50	5.30 to 6.00
Cc1cc([C@@H](C)Nc2ccc(Cl)nc2C(=O)NS(C)(=O)=O)c2nc(N3CCC4(CCC(O)CC4)CC3)n(C)c(=O)c2c1 [Compound 275]	pIC50	≤ 5.30
Cc1cc([C@@H](C)Nc2ccc(Cl)nc2C(=O)NS(C)(=O)=O)c2nc(NCC(F)(F)F)n(C)c(=O)c2c1 [Compound 34]	pIC50	5.30 to 6.00
Cc1cc([C@@H](C)Nc2ccc(Cl)nc2C(=O)NS(C)(=O)=O)c2nc(N3C[C@@H]4[C@H](C3)[C@H]4c3cc(C)n(C)n3)n(C)c(=O)c2c1 [Compound 435]	pIC50	5.30 to 6.00
Cc1cc([C@@H](C)Nc2ccc(Cl)nc2C(=O)NS(C)(=O)=O)c2nc(NCCC3CC3)n(C)c(=O)c2c1 [Compound 18]	pIC50	≤ 5.30
Cc1cc([C@@H](C)Nc2ccc(Cl)nc2C(=O)NS(C)(=O)=O)c2nc(N3CCC(c4cc(N)n(C)n4)CC3)n(C)c(=O)c2c1 [Compound 338]	pIC50	5.30 to 6.00
Cc1cc([C@@H](C)Nc2ccc(Cl)nc2C(=O)NS(C)(=O)=O)c2nc(N3CCC(c4ccn[nH]4)CC3)n(C)c(=O)c2c1 [Compound 165]	pIC50	5.30 to 6.00
Cc1cc([C@@H](C)Nc2ccc(Cl)nc2C(=O)NS(C)(=O)=O)c2nc(OCC3CC3)n(C)c(=O)c2c1 [Compound 51]	pIC50	6.00 to 6.30
C[C@@H](Nc1ccc(Cl)nc1C(=O)NS(C)(=O)=O)c1cc(F)cc2c(=O)n(C)c(N3C[C@@H]4[C@H](C3)[C@H]4c3cnn(C)c3)nc12 [Compound 411]	pIC50	5.30 to 6.00
Cc1cc([C@@H](C)Nc2ccc(Cl)nc2C(=O)NS(C)(=O)=O)c2nc(N3Cc4cnn([C@@H](C)C(F)(F)F)c4C3)n(C)c(=O)c2c1 (relative stereo) [Compound 284]	pIC50	5.30 to 6.00
